System: CQ-resistant strain of P. falciparum (K1)
Measurement Notes: in vitro antiplasmodium assay (parasite lactate dehydrogenase), CQ-resistant strain
Type: cell-based, Plasmodium falciparum
Setup Conditions: Plasmodium falciparum; CQ-resistant P. falciparum K1; mean ± SD; read-out: K1 IC50
Form field: IC50 (one value per entry).
Give just the number in nM; leave the unit off.

The examples below pair each entry with its known result.
{"Compound": "C=CCN1C[C@@H](OCc2ccccc2)[C@@H](CNCc2ccnc3ccccc23)C(C)(C)C1 (relative stereo) [Compound 17a]", "Target": "CQ-resistant strain of P. falciparum (K1)", "Endpoint Unit": "nM", "IC50": 3660}
{"Compound": "C=CCN1C[C@@H](OCc2ccccc2)[C@@H](CNc2ccnc3cc(Cl)ccc23)C(C)(C)C1 (relative stereo) [Compound 16a]", "Target": "CQ-resistant strain of P. falciparum (K1)", "Endpoint Unit": "nM", "IC50": 26}
{"Compound": "C=CCN1CCC(CNc2ccnc3ccccc23)C(C)(C)C1 (stereo not drawn) [Compound 16c]", "Target": "CQ-resistant strain of P. falciparum (K1)", "Endpoint Unit": "nM", "IC50": 68.5}
{"Compound": "Oc1cccc2ccc(CNCC3CC4(c5ccccc5)CCN3C4)nc12 (stereo not drawn) [Compound 12d]", "Target": "CQ-resistant strain of P. falciparum (K1)", "Endpoint Unit": "nM", "IC50": 4640}
{"Compound": "C=CCN1C[C@@H](OCc2ccccc2)[C@@H](CNCc2ccc3ccccc3n2)C(C)(C)C1 (relative stereo) [Compound 17c]", "Target": "CQ-resistant strain of P. falciparum (K1)", "Endpoint Unit": "nM", "IC50": 2820}

Q. Kindly indicate its recorded IC50. Item: C=CCN1C[C@@H](OCc2ccccc2)[C@@H](CNCc2cc3ccccc3nc2Cl)C(C)(C)C1 (relative stereo) [Compound 17f]
A. 1950

Q. Kindly indicate its recorded IC50. Item: C=CCN1CCC(CNc2ccnc3cc(Cl)ccc23)C(C)(C)C1 (stereo not drawn) [Compound 16b]
A. 25

Q. Kindly indicate its recorded IC50. Item: c1ccc(C23CCN(C2)C(CNc2ccnc4ccccc24)C3)cc1 (stereo not drawn) [Compound 11b]
A. 69

Q. Kindly indicate its recorded IC50. Item: Clc1ccc2c(NCC3CC4(c5ccccc5)CCN3C4)ccnc2c1 (stereo not drawn) [Compound 11a]
A. 33

----------
Tested on: Chinese hamster ovarian (CHO) cells
Measurement Notes: in vitro cytotoxicity, MTT-assay
Format: cell-based
Setup Conditions: Cricetulus griseus, CHO, reference value for compound subset d
Endpoint: IC50 (nM)
Give just the number in nM; leave the unit off.

Q. Kindly indicate its recorded IC50. Item: CC[C@H]1CN2CCc3cc(OC)c(OC)cc3[C@@H]2C[C@@H]1C[C@H]1NCCc2cc(OC)c(OC)cc21 [Emetine, reference compound]
A. 140
